# assay-target: human Y4 receptor (human, UniProt P50391 1-375)
# Sequence (P50391 whole entry): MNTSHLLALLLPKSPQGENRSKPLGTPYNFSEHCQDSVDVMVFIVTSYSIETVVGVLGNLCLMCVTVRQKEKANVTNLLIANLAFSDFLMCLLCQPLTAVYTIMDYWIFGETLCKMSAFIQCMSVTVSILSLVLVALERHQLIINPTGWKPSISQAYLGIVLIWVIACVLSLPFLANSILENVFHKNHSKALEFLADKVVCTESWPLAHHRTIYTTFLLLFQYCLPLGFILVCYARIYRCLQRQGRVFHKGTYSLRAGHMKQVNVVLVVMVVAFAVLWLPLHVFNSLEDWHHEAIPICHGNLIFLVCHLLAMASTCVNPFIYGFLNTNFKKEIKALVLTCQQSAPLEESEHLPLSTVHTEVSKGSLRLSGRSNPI
# assay-procedure: 125I-PP displacement
assay-readout: IC50 (nM)

Some solved cases for reference:
{"columns": ["binder", "IC50, nM"],
 "data": [
  ["AAPLEPTYPGDNATPEQKAKYAAELRRYIDKLTRPRY [4061082]", 0.158],
  ["PAPLEPKYPGDNATPEQLAKYAAELRRYIDKLTRPRY [4060893]", 0.11],
  ["GAPLEPVYPGDNATPEQKAKYAAELRRYIDRLTRPRY [4061090]", 0.1],
  ["PAPLEPEYPGDDATPQQKARYAAELRRYINKLTRPRY [4060685]", 0.065]
]}

[a] GAPLEPVYPGDNATPEQLAKYAAELRRYIDKLTRPRY [4060897]
[b] PAPLEPTYPGDNATPEQKAKYYSELRRYINKLTRPRY [4060280]
Field: lower IC50 | Options: a / b Write the label of whichever entry you select. b
(b: 0.064 nM, a: 0.137 nM)
